target: Protein arginine N-methyltransferase 6 (Homo sapiens)
READOUT_LABEL: Kd (µM)

[[record]]
line_notation = "NCCN1CCC(Cc2ccccc2)CC1"
readout_label = "Kd"
endpoint_value = 0.97


---

target: UniProtKB O14744; assay: Inhibition of human PRMT5 using 24 residues of biotin labelled histone4 substrate and tritiated 3H-S-adenosylmethionine by scintillation proximity assay
Sequence (O14744 whole entry): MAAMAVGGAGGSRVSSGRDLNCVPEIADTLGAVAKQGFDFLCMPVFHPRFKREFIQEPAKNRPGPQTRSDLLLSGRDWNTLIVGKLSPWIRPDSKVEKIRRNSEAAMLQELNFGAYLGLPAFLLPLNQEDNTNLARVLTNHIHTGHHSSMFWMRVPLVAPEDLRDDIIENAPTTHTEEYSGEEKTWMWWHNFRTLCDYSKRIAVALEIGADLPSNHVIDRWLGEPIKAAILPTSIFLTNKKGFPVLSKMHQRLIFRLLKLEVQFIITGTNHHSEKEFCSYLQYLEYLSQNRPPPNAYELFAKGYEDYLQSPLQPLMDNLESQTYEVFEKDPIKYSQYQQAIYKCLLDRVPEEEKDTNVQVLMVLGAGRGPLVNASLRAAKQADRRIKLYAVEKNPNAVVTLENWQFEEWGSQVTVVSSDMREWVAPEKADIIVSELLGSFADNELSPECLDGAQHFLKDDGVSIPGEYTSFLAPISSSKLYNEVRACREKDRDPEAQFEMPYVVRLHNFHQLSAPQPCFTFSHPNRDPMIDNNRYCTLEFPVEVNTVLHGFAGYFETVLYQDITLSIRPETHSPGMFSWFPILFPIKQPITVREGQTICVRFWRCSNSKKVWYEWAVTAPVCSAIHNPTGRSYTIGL
READOUT_LABEL: IC50

[[record]]
line_notation = "CNCCN(C)C"
endpoint_value = "Not Active"

[[record]]
line_notation = "CNCCN1CCC(C)CC1"
endpoint_value = "Not Active"

[[record]]
line_notation = "NCCN1CCC(Cc2ccccc2)CC1"
endpoint_value = "Not Active"

[[record]]
line_notation = "CCNC(=O)[C@@H](C)N"
endpoint_value = "Not Active"


---

Target: Histone-arginine methyltransferase CARM1 (Homo sapiens)
Sequence (Q86X55 whole entry): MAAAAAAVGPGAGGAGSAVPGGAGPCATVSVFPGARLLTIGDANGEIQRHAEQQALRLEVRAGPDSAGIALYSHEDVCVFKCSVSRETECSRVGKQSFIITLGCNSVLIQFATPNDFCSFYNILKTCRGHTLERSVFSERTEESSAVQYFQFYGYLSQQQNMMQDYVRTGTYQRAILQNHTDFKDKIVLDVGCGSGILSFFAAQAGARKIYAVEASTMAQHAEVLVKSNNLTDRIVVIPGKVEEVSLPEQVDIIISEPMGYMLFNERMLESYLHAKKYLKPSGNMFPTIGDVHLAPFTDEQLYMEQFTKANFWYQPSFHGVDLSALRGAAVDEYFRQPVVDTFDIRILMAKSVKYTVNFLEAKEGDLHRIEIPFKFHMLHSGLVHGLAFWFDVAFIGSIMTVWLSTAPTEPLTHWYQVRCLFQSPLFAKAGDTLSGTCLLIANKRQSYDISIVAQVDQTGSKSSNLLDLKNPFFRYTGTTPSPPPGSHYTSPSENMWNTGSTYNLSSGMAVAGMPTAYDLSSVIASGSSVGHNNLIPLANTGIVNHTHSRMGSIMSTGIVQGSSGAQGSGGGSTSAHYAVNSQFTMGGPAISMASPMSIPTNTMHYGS
Experiment: Inhibition of human PRMT4 using 24 residues of biotin labelled histone4 substrate and tritiated 3H-S-adenosylmethionine by scintillation proximity assay
IC50 values by entry
READOUT_LABEL: IC50 (nM)

[[record]]
line_notation = "NCCN1CCC(Cc2ccccc2)CC1"
endpoint_value = 1000

[[record]]
line_notation = "CNCCN1CCC(C)CC1"
endpoint_value = 200

[[record]]
line_notation = "CCNC(=O)[C@@H](C)N"
endpoint_value = 105000

[[record]]
line_notation = "CNCCN(C)C"
endpoint_value = 3000


---

target: Protein arginine N-methyltransferase 6 (Homo sapiens); test: Inhibition of FLAG-tagged human PRMT6 expressed in HEK293 cells assessed as reduction in H3R2 global methylation incubated for 20 hrs by Western blot method; assay type: cell-based
READOUT_LABEL: IC50 (µM)

[[record]]
line_notation = "NCCN1CCC(Cc2ccccc2)CC1"
endpoint_value = 21


---

target: Protein arginine N-methyltransferase 6 (Homo sapiens, UniProt Q96LA8, L267E); assay: Inhibition of PRMT6 L267E mutant (unknown origin) using 24 residues of biotin labelled histone4 substrate and tritiated 3H-S-adenosylmethionine by scintillation proximity assay
Sequence (Q96LA8 whole entry L267E): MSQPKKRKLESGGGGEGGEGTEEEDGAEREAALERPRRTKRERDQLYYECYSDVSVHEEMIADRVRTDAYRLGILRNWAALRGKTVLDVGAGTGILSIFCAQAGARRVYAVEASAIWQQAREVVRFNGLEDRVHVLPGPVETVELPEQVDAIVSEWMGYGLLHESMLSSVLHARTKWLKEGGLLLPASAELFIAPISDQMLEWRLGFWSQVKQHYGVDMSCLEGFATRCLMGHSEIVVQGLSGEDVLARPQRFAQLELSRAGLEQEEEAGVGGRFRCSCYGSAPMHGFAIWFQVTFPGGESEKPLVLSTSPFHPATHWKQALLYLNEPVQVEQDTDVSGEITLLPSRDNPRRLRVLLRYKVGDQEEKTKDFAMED
pIC50: −log10 of the molar value.
READOUT_LABEL: pIC50

[[record]]
line_notation = "NCCN1CCC(Cc2ccccc2)CC1"
endpoint_value = 6.41

